Values compiled from the supplement of paper PMC7877785.

- assay-overview: self-splicing fitness, log relative to wild type (ln ratio); higher = more splicing; Tetrahymena group I intron in knt gene, E. coli kanamycin selection, DiMSum; sequences stand for … in CUCUCU…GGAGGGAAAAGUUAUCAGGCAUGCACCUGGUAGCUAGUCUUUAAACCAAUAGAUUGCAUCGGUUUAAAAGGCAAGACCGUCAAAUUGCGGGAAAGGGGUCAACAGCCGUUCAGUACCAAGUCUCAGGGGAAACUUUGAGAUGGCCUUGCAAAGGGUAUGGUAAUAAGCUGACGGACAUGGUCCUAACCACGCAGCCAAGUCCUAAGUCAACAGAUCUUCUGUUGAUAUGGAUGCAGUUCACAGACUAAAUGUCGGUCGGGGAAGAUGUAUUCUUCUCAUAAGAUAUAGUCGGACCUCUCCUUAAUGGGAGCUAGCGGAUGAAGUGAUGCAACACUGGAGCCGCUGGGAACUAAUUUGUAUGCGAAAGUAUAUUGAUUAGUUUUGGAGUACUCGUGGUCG;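 note: selection with 25 µg/mL kanamycin versus none on LB agar overnight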
- condition-details: 37 °C
readout-type: self-splicing fitness (ln)
Numbers only.

INSERT INTO measurements (seq, readout_type, reported_value) VALUES
  ('CGGGAGCAAUAUUACGGAAU', 'self-splicing fitness (ln)', -1.42);

Your task in this section: give self-splicing fitness (ln) for each listed record.
1. CAGCAGCAAUAUUACGUUAA
2. GAUAAGCAAUAUUACGCUAA
3. UACGAGCAAUAUUACGUGCG
4. UAGCAGCAAUAUUACGACGG
5. GGCUAGCAAUAUUACGUGAU
6. GUCUAGCAAUAUUACGUCCC
7. CCAAAGCAAUAUUACGCAGA

Reply |
[-1.66, -2.28, -1.97, -0.313, -0.509, -0.0539, -2.65]

Each sequence below has a recorded value; state its self-splicing fitness (ln).
1. GAUCAGCAAUAUUACGACAA
2. GAAAAGCAAUAUUACGCUCU
3. CCUCAGCAAUAUUACGAAGA
4. AUACAGCAAUAUUACGUACG
5. UCAAAGCAAUAUUACGGACA
6. AAACAGCAAUAUUACGGCAC
7. UUUGAGCAAUAUUACGAGAU

Reply |
1: -0.396; 2: -1.27; 3: -2.31; 4: 0.0144; 5: 0.0835; 6: -0.057; 7: -3.12

List reported self-splicing fitness (ln) for each of these sequences:
1. UCCGAGCAAUAUUACGCUAA
2. AAUCAGCAAUAUUACGCGUU
3. GGUGAGCAAUAUUACGGAAG
4. UCAUAGCAAUAUUACGGUGG
5. UUAGAGCAAUAUUACGAGUA

Reply |
-2.86
-0.765
-2.66
-2.07
-2.1

Consider the following items and state reported self-splicing fitness (ln) for each.
1. GUUGAGCAAUAUUACGUUGA
2. UCCUAGCAAUAUUACGGCUA
3. AAAGAGCAAUAUUACGAAAU
4. AGGGAGCAAUAUUACGAGGU
5. UAACAGCAAUAUUACGGCCU
6. ACUCAGCAAUAUUACGCCCA
7. GAAUAGCAAUAUUACGGAAU

Reply |
-2.9
-2.35
-2.4
-3.55
-0.33
-0.482
-1.66

====

- assay-overview: self-splicing fitness, log relative to wild type (ln ratio); higher = more splicing; Tetrahymena group I intron in knt gene, E. coli kanamycin selection, DiMSum; sequences stand for … in CUCUCU…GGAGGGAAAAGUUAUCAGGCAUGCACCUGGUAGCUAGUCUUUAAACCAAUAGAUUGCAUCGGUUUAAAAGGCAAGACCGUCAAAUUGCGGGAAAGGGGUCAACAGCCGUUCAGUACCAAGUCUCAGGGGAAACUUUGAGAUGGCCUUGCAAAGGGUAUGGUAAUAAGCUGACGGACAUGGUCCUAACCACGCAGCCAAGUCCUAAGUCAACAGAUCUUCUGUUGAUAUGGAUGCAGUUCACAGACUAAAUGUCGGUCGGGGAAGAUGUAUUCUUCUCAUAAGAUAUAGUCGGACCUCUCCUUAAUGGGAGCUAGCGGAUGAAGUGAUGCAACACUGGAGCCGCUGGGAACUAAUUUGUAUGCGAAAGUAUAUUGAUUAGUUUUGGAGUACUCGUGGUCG
- condition-details: 30 °C
Please go through the items and note down their self-splicing fitness (ln).
Numbers only.

INSERT INTO measurements (seq, reported_value) VALUES
  ('UAGAAGCAAUAUUACGCCCA', -0.128),
  ('CGCAAGCAAUAUUACGUCUA', -1.6),
  ('CAGAAGCAAUAUUACGUGCC', -4.04),
  ('CGCUAGCAAUAUUACGUACA', -2.62),
  ('GCCUAGCAAUAUUACGACAG', -3.52);

Provide self-splicing fitness (ln) values for the following items, in order.
1. UGUUAGCAAUAUUACGAGAC
2. GCGAAGCAAUAUUACGAUCU
3. UACAAGCAAUAUUACGGCAC
4. AGCAAGCAAUAUUACGCCCC
5. AUCCAGCAAUAUUACGCAAU
6. CAUUAGCAAUAUUACGAUCU
7. CAAAAGCAAUAUUACGGGCG
8. CGUUAGCAAUAUUACGCUCA

Reply |
1: -3.17; 2: -1.09; 3: -1.64; 4: 0.415; 5: -1.38; 6: -2.48; 7: -0.0633; 8: -0.383

====

- assay-overview: self-splicing fitness, log relative to wild type (ln ratio); higher = more splicing; Tetrahymena group I intron in knt gene, E. coli kanamycin selection, DiMSum; sequences stand for … in CUCUCU…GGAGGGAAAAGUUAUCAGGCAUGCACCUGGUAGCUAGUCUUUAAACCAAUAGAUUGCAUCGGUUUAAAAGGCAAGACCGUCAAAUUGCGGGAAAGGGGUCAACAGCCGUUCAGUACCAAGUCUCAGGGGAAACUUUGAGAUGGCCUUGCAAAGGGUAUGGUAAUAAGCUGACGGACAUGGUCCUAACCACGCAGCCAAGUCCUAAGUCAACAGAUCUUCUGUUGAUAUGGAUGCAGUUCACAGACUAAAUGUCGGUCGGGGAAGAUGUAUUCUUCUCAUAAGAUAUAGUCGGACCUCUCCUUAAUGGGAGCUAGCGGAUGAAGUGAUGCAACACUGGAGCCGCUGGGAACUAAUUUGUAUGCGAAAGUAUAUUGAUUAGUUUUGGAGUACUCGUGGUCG
- condition-details: 37 °C
Definition: the class of an entry is the range in lowest: < -2; middle: ≥ -2 and < -0.7; highest: ≥ -0.7 that contains its self-splicing fitness (ln).

Reference set, count: 3
INSERT INTO assay_data (seq, label_class) VALUES
  ('AGCUAGCAAUAUUACGCCUA', 'highest'),
  ('ACCGAGCAAUAUUACGUUGG', 'lowest'),
  ('GCCAAGCAAUAUUACGACCA', 'middle');

Ask | Which bin should I file ACGCAGCAAUAUUACGGAUG under?
Reply | middle

Ask | Dear colleague, I would appreciate it if you could identify the bin for GACAAGCAAUAUUACGUGGU and reply at your convenience.
Reply | lowest

Ask | Textbook exercise: identify the category of the sequence given here, UUUAAGCAAUAUUACGUCCU , according to its measured value.
Reply | middle

Ask | Field: class (self-splicing fitness (ln)) — entry: GAUCAGCAAUAUUACGCAGC
Reply | highest

Ask | Band assignment needed for GUGUAGCAAUAUUACGGUUU please.
Reply | middle

Ask | Sort into band: AGAAAGCAAUAUUACGUGUC
Reply | middle

Ask | The entry to classify is CGCGAGCAAUAUUACGGAUG ; which class holds it?
Reply | highest

Ask | Tag the class for UUCUAGCAAUAUUACGGUAA
Reply | highest

Ask | For this sequence, which bin applies? GAAGAGCAAUAUUACGACUA
Reply | middle

Ask | Please classify: AUAGAGCAAUAUUACGGAGA
Reply | lowest

Ask | GET /class?item= CCCUAGCAAUAUUACGUAGU
Reply | lowest

====

Would you mind telling me the reported self-splicing fitness (ln) of each entry?
- assay-overview: self-splicing fitness, log relative to wild type (ln ratio); higher = more splicing; Tetrahymena group I intron in knt gene, E. coli kanamycin selection, DiMSum; sequences stand for … in CUCUCU…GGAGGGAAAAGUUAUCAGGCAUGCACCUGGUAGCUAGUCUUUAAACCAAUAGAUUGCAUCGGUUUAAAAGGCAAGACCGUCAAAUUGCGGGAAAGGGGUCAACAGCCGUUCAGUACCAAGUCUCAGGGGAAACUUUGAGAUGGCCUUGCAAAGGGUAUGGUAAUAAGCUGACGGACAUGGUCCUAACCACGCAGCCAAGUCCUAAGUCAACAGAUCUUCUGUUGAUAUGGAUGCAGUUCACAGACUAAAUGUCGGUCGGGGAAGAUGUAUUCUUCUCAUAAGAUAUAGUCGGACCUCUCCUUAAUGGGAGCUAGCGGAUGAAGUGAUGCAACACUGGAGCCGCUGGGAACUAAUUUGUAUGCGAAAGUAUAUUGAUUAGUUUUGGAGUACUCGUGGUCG
- condition-details: 30 °C
Numbers only.

INSERT INTO assay_data (seq, reported_value) VALUES
  ('UCCGAGCAAUAUUACGACAU', -3.93);

Can you give me self-splicing fitness (ln) for all of these, one by one?
1. ACCUAGCAAUAUUACGGUUC
2. UAUGAGCAAUAUUACGGUGU
3. UACUAGCAAUAUUACGCUUU
4. GUGUAGCAAUAUUACGGCUU
5. AAGUAGCAAUAUUACGUAGU
6. GAUCAGCAAUAUUACGAUUA
7. ACCCAGCAAUAUUACGUAUC

Reply |
1: -4.77; 2: -3.54; 3: -2.09; 4: -0.494; 5: -3.59; 6: -0.622; 7: -2.25
